Give relative viability for every item shown.
- Tested on: EMC-BAC-2
- ASSAY: relative viability (nuclei count vs DMSO), 5 days (fraction); higher = more cells survive
- TEST PARAMETERS: first compound 0.1265 µM
Reply briefly: the number, and no unit.

Documented relative viability of C[C@@H]1CN(CC(=O)Nc2ccc3c(c2)Cc2cccc(-c4cc(=O)cc(N5CCOCC5)o4)c2S3)C[C@H](C)O1 + Cc1nc(Nc2ncc(C(=O)Nc3c(C)cccc3Cl)s2)cc(N2CCN(CCO)CC2)n1 [Dasatinib] (partner 0.075 µM) : 0.34

Kindly note the recorded relative viability for COc1cc(N2CCC(C(N)=O)CC2)ccc1Nc1nc(N)c(Cl)c(Nc2ccccc2S(=O)(=O)C(C)C)n1 [HG-5-88-01] + CC(C)C[C@H](NC(=O)[C@H](Cc1ccccc1)NC(=O)c1cnccn1)B(O)O [Bortezomib] (partner 0.002 µM) , which is 1.06

Measured relative viability, Clc1ccc(Nc2nnc(Cc3ccncc3)c3ccccc23)cc1 [Vatalanib] + COc1cccc2cc(-c3nc([C@H]4CC[C@H](C(=O)O)CC4)n4ncnc(N)c34)[nH]c12 [OSI-027] (partner 0.5 µM) : 0.392

Entry C[C@@H]1CN(CC(=O)Nc2ccc3c(c2)Cc2cccc(-c4cc(=O)cc(N5CCOCC5)o4)c2S3)C[C@H](C)O1 + C[C@]1(O)C[C@@H](c2nc(-c3ccc4ccc(-c5ccccc5)nc4c3)c3c(N)nccn32)C1 [Linsitinib] (partner 1 µM) , relative viability reported as 0.765

relative viability for C[C@@H]1CN(CC(=O)Nc2ccc3c(c2)Cc2cccc(-c4cc(=O)cc(N5CCOCC5)o4)c2S3)C[C@H](C)O1 + COc1cccc2cc(-c3nc([C@H]4CC[C@H](C(=O)O)CC4)n4ncnc(N)c34)[nH]c12 [OSI-027] (partner 0.5 µM) is 0.429

// COc1cc(N2CCC(C(N)=O)CC2)ccc1Nc1nc(N)c(Cl)c(Nc2ccccc2S(=O)(=O)C(C)C)n1 [HG-5-88-01] + Nc1nc2[nH]cc(CCc3ccc(C(=O)N[C@@H](CCC(=O)O)C(=O)O)cc3)c2c(=O)[nH]1 [Pemetrexed] (partner 0.2 µM) : relative viability value = 0.432

Please fill in: relative viability reported for Clc1ccc(Nc2nnc(Cc3ccncc3)c3ccccc23)cc1 [Vatalanib] + CCNC(=O)c1noc(-c2cc(C(C)C)c(O)cc2O)c1-c1ccc(CN2CCOCC2)cc1 [Luminespib] (partner 0.01 µM) = 1.13

Per the records, this compound ( Clc1ccc(Nc2nnc(Cc3ccncc3)c3ccccc23)cc1 [Vatalanib] + CC(C)C[C@H](NC(=O)[C@H](Cc1ccccc1)NC(=O)c1cnccn1)B(O)O [Bortezomib] (partner 0.002 µM) ) has relative viability equal to 1.09

Lab note: measured relative viability of COc1cc(N2CCC(C(N)=O)CC2)ccc1Nc1nc(N)c(Cl)c(Nc2ccccc2S(=O)(=O)C(C)C)n1 [HG-5-88-01] + CC1(C)CCC(c2ccc(Cl)cc2)=C(CN2CCN(c3ccc(C(=O)NS(=O)(=O)c4ccc(N[C@H](CCN5CCOCC5)CSc5ccccc5)c(S(=O)(=O)C(F)(F)F)c4)cc3)CC2)C1 [Navitoclax] (partner 0.5 µM) was 1.23

The compound listed as C[C@@H]1CN(CC(=O)Nc2ccc3c(c2)Cc2cccc(-c4cc(=O)cc(N5CCOCC5)o4)c2S3)C[C@H](C)O1 + N=C(N)NC(=N)NCCc1ccccc1 [Phenformin] (partner 250 µM) has a reported relative viability of 0.566

Per the record, Clc1ccc(Nc2nnc(Cc3ccncc3)c3ccccc23)cc1 [Vatalanib] + Cc1nc(NC(=O)N2CCC[C@H]2C(N)=O)sc1-c1ccnc(C(C)(C)C(F)(F)F)c1 [Alpelisib] (partner 2 µM) has relative viability of 0.714
